Overview of reported IC50 across a group of compounds:
targetUnderTest: hSTING-WT (Homo sapiens (Human), UniProt Q86WV6, H232R)
Sequence (Q86WV6 140-379 H232R): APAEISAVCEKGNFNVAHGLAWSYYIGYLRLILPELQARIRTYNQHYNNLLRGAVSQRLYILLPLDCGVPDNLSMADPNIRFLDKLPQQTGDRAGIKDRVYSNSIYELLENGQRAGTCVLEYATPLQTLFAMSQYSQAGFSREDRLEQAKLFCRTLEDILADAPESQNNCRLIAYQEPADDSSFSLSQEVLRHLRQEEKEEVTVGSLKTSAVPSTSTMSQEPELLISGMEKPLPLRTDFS
testName: Radiometric filtration binding competition assay, hSTING-WT

# example entries with known answers
>  <smiles>
C[C@H](O)COc1c(Cl)ccc2c(=O)c3ccccc3n(CC(=O)O)c12

>  <targetUnderTest>
hSTING-WT (Homo sapiens (Human), UniProt Q86WV6, H232R)

>  <IC50>
> 300 µM

$$$$
>  <smiles>
C[C@H]1CCCN1c1ccc2c(=O)c3ccc(Cl)c(Br)c3n(CC(=O)O)c2c1

>  <targetUnderTest>
hSTING-WT (Homo sapiens (Human), UniProt Q86WV6, H232R)

>  <IC50>
20 to 100 µM

$$$$
>  <smiles>
CC1(C)CC=C(c2ccc3c(=O)c4ccc(Cl)c(Cl)c4n(CC(=O)O)c3c2)CC1

>  <targetUnderTest>
hSTING-WT (Homo sapiens (Human), UniProt Q86WV6, H232R)

>  <IC50>
20 to 100 µM

$$$$
>  <smiles>
O=C(O)Cn1c2ccccc2c(=O)c2ccc(Cl)c(Oc3nccc4ccccc34)c21

>  <targetUnderTest>
hSTING-WT (Homo sapiens (Human), UniProt Q86WV6, H232R)

>  <IC50>
20 to 100 µM

$$$$
>  <smiles>
Cn1ccc(-c2ccc3c(=O)c4ccc(Cl)c(Cl)c4n(CC(=O)O)c3c2)n1

>  <targetUnderTest>
hSTING-WT (Homo sapiens (Human), UniProt Q86WV6, H232R)

>  <IC50>
> 300 µM

$$$$
>  <smiles>
C=CCOc1c(Cl)ccc2c(=O)c3ccc(C)cc3n(CC(=O)O)c12

>  <targetUnderTest>
hSTING-WT (Homo sapiens (Human), UniProt Q86WV6, H232R)

>  <IC50>
20 to 100 µM

$$$$

Query: Bench note: what IC50 did `Cc1ccc(S(=O)(=O)NC(=O)Cn2c3cc(C(C)C)ccc3c(=O)c3ccc(Cl)c(Cl)c32)cc1` show?
Response: 20 to 100 µM

Query: And for `Cc1ccc(-c2ccc3c(=O)c4ccc(Cl)c(Cl)c4n(CC(=O)O)c3c2)cc1` ?
Response: 100 to 300 µM

----------
targetUnderTest: hSTING-WT (Homo sapiens (Human), UniProt Q86WV6, H232R)
testName: Radiometric filtration binding competition assay, hSTING-WT
Overview of reported IC50 across a group of molecules:

>  <molecule>
O=C(O)Cn1c2cc(-c3cccc(Cl)c3)ccc2c(=O)c2ccc(Cl)c(Cl)c21 [Compound 155]

>  <IC50>
100 to 300 µM

$$$$
>  <molecule>
COc1ccc2c(=O)c3ccccc3n(CC(=O)O)c2c1OC [Compound 265]

>  <IC50>
> 300 µM

$$$$
>  <molecule>
COc1cccc2c(=O)c3ccccc3n(CC(=O)O)c12 [Compound 131]

>  <IC50>
> 300 µM

$$$$

Query: # query: IC50 | item COc1c(Cl)c(N)cc2c(=O)c3ccccc3n(CC(=O)O)c12 [Compound 316] | system: hSTING-WT (Homo sapiens (Human), UniProt Q86WV6, H232R)
Response: > 300 µM

Query: And for O=C(O)Cn1c2cc(C3CCCC3)ccc2c(=O)c2ccc(Cl)c(Cl)c21 [Compound 113] ?
Response: 20 to 100 µM

Query: And for CC(C)c1ccc2c(=O)c3ccc(Cl)c(Cl)c3n(C)c2c1 [Compound 174] ?
Response: > 300 µM

Query: And for O=C(O)Cn1c2cc(C(F)F)ccc2c(=O)c2ccc(Cl)c(Cl)c21 [Compound 166] ?
Response: > 300 µM

Query: And for CC(C)(C)CNc1ccc2c(=O)c3ccc(Cl)c(Br)c3n(CC(=O)O)c2c1 [Compound 148] ?
Response: 20 to 100 µM

Query: And for CS(=O)(=O)Nc1cccc(Nc2ccc3c(=O)c4ccc(Cl)c(Cl)c4n(CC(=O)O)c3c2)c1 [Compound 257] ?
Response: 20 to 100 µM

----------
targetUnderTest: hSTING-HAQ (Homo sapiens (Human), UniProt Q86WV6, G230A/H232R/R293Q)
Sequence (Q86WV6 140-379 G230A/H232R/R293Q): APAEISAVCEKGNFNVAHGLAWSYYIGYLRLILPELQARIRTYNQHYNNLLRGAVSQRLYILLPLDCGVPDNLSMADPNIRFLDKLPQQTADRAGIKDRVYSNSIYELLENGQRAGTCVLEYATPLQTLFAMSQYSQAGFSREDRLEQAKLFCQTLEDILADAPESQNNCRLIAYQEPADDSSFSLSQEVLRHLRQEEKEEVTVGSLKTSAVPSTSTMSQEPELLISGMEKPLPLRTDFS
testName: STING differential scanning fluorimetry (DSF) assay, HAQ human STING
runConditions: HAQ human STING aa140-379, net shift in melting temperature
measure: HAQ_DSF_hSWAT Tm Shift (° C.)

>  <smiles>
O=C(O)Cn1c2cc(Nc3cnccn3)ccc2c(=O)c2ccc(Cl)c(Cl)c21

>  <targetUnderTest>
hSTING-HAQ (Homo sapiens (Human), UniProt Q86WV6, G230A/H232R/R293Q)

>  <HAQ_DSF_hSWAT Tm Shift (° C.)>
D (“D” > 7° C.)

$$$$
>  <smiles>
COc1c(Cl)ccc2c(=O)c3ccc(Nc4ccccc4)cc3n(CC(=O)O)c12

>  <targetUnderTest>
hSTING-HAQ (Homo sapiens (Human), UniProt Q86WV6, G230A/H232R/R293Q)

>  <HAQ_DSF_hSWAT Tm Shift (° C.)>
D (“D” > 7° C.)

$$$$
>  <smiles>
COc1c(Cl)ccc2c(=O)c3ccc(C4CCCCC4)cc3n(CC(=O)O)c12

>  <targetUnderTest>
hSTING-HAQ (Homo sapiens (Human), UniProt Q86WV6, G230A/H232R/R293Q)

>  <HAQ_DSF_hSWAT Tm Shift (° C.)>
D (“D” > 7° C.)

$$$$
>  <smiles>
CC(C)c1ccc2c(=O)c3ccc(Cl)c(Br)c3n(CC(=O)NS(C)(=O)=O)c2c1

>  <targetUnderTest>
hSTING-HAQ (Homo sapiens (Human), UniProt Q86WV6, G230A/H232R/R293Q)

>  <HAQ_DSF_hSWAT Tm Shift (° C.)>
C (“C” = 2-7° C,)

$$$$
>  <smiles>
O=C(O)Cn1c2cc(NC3CCCCC3)ccc2c(=O)c2ccc(Cl)c(Br)c21

>  <targetUnderTest>
hSTING-HAQ (Homo sapiens (Human), UniProt Q86WV6, G230A/H232R/R293Q)

>  <HAQ_DSF_hSWAT Tm Shift (° C.)>
D (“D” > 7° C.)

$$$$

Query: Bench note: what HAQ_DSF_hSWAT Tm Shift (° C.) did `COc1c(Cl)ccc2c(=O)c3ccc(C(C)(C)C)cc3n(CC(=O)O)c12` show?
Response: D (“D” > 7° C.)

Query: And for `CSc1c(Cl)ccc2c(=O)c3ccc(C(C)(C)C)cc3n(CC(=O)O)c12` ?
Response: D (“D” > 7° C.)

Query: And for `O=C(O)Cn1c2cc(Nc3ccc(F)cc3)ccc2c(=O)c2ccc(Cl)c(Cl)c21` ?
Response: D (“D” > 7° C.)

Query: And for `O=C(O)Cn1c2cc(C3CCCCC3)ccc2c(=O)c2ccc(Cl)c(Br)c21` ?
Response: D (“D” > 7° C.)

Query: And for `O=C(O)Cn1c2cc(Nc3ccc(F)cc3F)ccc2c(=O)c2ccc(Cl)c(Cl)c21` ?
Response: D (“D” > 7° C.)

Query: And for `O=C(O)Cn1c2cc(C3CCCC3)ccc2c(=O)c2ccc(Cl)c(Cl)c21` ?
Response: C (“C” = 2-7° C,)

Query: And for `CC1(C)CC=C(c2ccc3c(=O)c4ccc(Cl)c(Cl)c4n(CC(=O)O)c3c2)CC1` ?
Response: A (“A” < 0° C.)

Query: And for `Cc1cccc(-c2ccc3c(=O)c4ccc(Cl)c(Cl)c4n(CC(=O)O)c3c2)c1` ?
Response: C (“C” = 2-7° C,)

Query: And for `Cc1ccc(S(=O)(=O)NC(=O)Cn2c3cc(C(C)C)ccc3c(=O)c3ccc(Cl)c(Cl)c32)cc1` ?
Response: A (“A” < 0° C.)

Query: And for `CC(C)(C)c1ccc2c(=O)c3ccc(Cl)c(Br)c3n(CC(=O)O)c2c1` ?
Response: D (“D” > 7° C.)

Query: And for `O=C(O)Cn1c2cc(C3CCCCC3)ccc2c(=O)c2ccc(Cl)c(Cl)c21` ?
Response: C (“C” = 2-7° C,)

----------
Overview of reported IC50 across a group of compounds:
targetUnderTest: hSTING-WT (Homo sapiens (Human), UniProt Q86WV6, H232R)
testName: Radiometric filtration binding competition assay, hSTING-WT

# example entries with known answers
>  <compound>
Cc1ccc2c(=O)c3ccc(Cl)c(Cl)c3n(CC(=O)O)c2c1C [Compound 134]

>  <IC50>
20 to 100 µM

$$$$
>  <compound>
C[C@H](C(=O)O)n1c2ccccc2c(=O)c2ccc(Cl)c(Cl)c21 [Compound 101]

>  <IC50>
> 300 µM

$$$$
>  <compound>
COc1ccc2c(c1C)c(=O)c1ccc(Cl)c(Cl)c1n2CC(=O)O [Compound 133]

>  <IC50>
100 to 300 µM

$$$$
>  <compound>
COCc1c(Cl)ccc2c(=O)c3ccccc3n(CC(=O)O)c12 [Compound 229]

>  <IC50>
> 300 µM

$$$$

Kindly review the next compound as well.
Query: Bench note: what IC50 did COc1c(Cl)ccc2c(=O)c3ccc(S(C)(=O)=O)cc3n(CC(=O)O)c12 [Compound 249] show?
Response: > 300 µM
